Data provenance is ChEMBL document CHEMBL5550187.

# EXPERIMENTAL_TARGET: Toll-like receptor 2 (Mus musculus, UniProt Q9QUN7)
# Sequence (Q9QUN7 whole entry): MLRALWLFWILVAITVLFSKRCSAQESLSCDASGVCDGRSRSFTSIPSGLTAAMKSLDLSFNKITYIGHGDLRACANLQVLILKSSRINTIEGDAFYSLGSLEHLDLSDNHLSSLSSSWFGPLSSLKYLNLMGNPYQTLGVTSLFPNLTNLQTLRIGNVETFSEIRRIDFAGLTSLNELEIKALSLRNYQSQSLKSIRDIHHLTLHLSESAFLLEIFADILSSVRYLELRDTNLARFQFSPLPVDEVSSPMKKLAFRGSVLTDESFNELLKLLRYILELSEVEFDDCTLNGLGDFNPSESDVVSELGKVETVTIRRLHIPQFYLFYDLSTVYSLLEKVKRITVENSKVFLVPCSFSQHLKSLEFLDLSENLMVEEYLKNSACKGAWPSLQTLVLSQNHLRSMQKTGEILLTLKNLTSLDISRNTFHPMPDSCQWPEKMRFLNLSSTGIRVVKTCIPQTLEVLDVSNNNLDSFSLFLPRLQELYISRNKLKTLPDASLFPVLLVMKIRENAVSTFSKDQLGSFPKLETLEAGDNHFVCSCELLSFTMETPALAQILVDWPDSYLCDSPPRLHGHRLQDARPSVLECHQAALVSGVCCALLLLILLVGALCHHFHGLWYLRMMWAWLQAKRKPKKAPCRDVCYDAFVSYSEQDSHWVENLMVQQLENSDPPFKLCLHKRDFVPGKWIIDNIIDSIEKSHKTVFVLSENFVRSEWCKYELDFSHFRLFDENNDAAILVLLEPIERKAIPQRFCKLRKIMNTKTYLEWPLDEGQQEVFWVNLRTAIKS
# EXPERIMENT_DESCRIPTION: Agonist activity at TLR2 in RmGM-CSF-induced wild type Black6 mouse BMDC cells lacking TLR4 assessed as increase in TNFalpha response incubated overnight by ELISA
MEASURED_ATTRIBUTE: EC50 (µM)
Output spec: scalar in µM, unitless text.

// returns reported EC50 for input CCCCCCCCCCCCC[C@@H]1OC[C@H]([C@@H]2O[C@@H](OC[C@H](O)COC(=O)CCCCCCCCCCC)[C@H](O)[C@H]2O)O1 3.2
